In this section we review reported viability, T/C values for a set of compounds.
test system: 242566-281-R-J2-PDC complex spheroid viability; test: Anticancer human tumor 242566-281-R-J2-PDC patient-derived pancreatic carcinoma cell line growth inhibition [RAS]; conditions: second compound 1 µM; first compound 0.0316 µM; stronger effect = lower value;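 note: spheroids exposed to compound for 7 days before readout; 100% = DMSO vehicle control wells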
reported.metric: viability, T/C (%)

[
  {
    "compound": "C[C@@H](NC(=O)c1ncnc(N)c1Cl)c1ncc(C(=O)Nc2cc(C(F)(F)F)c(Cl)cn2)s1 + C=CC(=O)N1CCN(c2nc(OCC3CCCN3C)nc3c(F)c(-c4nc(N)cc(C)c4C(F)(F)F)c(Cl)cc23)C(C)C1",
    "measured.target": "242566-281-R-J2-PDC complex spheroid viability",
    "endpoint.unit": "%",
    "value.observed": 111
  },
  {
    "compound": "NC1c2ccccc2OC12CCN(c1cnc3c(N4CCCc5ncccc54)n[nH]c3n1)CC2 (stereo not given) + C#Cc1c(F)ccc2cc(O)cc(-c3ncc4c(N5CC6CCC(C5)N6)nc(OCC56CCCN5CC(F)C6)nc4c3F)c12",
    "measured.target": "242566-281-R-J2-PDC complex spheroid viability",
    "endpoint.unit": "%",
    "value.observed": 32.2
  },
  {
    "compound": "CC1(O)CCCC1n1c(=O)c(C(F)F)cc2cnc(NC3CCN(S(C)(=O)=O)CC3)nc21 (stereo not given) + C#Cc1c(F)ccc2cc(O)cc(-c3ncc4c(N5CC6CCC(C5)N6)nc(OCC56CCCN5CC(F)C6)nc4c3F)c12",
    "measured.target": "242566-281-R-J2-PDC complex spheroid viability",
    "endpoint.unit": "%",
    "value.observed": 66.3
  },
  {
    "compound": "Nc1ccn(C2OC(CO)C(O)C2(F)F)c(=O)n1 (stereo not given) + C#Cc1c(F)ccc2cc(O)cc(-c3ncc4c(N5CC6CCC(C5)N6)nc(OCC56CCCN5CC(F)C6)nc4c3F)c12",
    "measured.target": "242566-281-R-J2-PDC complex spheroid viability",
    "endpoint.unit": "%",
    "value.observed": 40.8
  },
  {
    "compound": "NC1c2ccccc2OC12CCN(c1cnc3c(N4CCCc5ncccc54)n[nH]c3n1)CC2 (stereo not given) + C=CC(=O)N1CCN(c2nc(OCC3CCCN3C)nc3c(F)c(-c4nc(N)cc(C)c4C(F)(F)F)c(Cl)cc23)C(C)C1",
    "measured.target": "242566-281-R-J2-PDC complex spheroid viability",
    "endpoint.unit": "%",
    "value.observed": 122
  }
]
